# condition details: cellulose concentration vs RFU, linear regression
observable: Gradient Parameters (gradient of regression line)
No unit in the answer, only the number.

Example results:
>>> numeric_readout("Cl.Cl.NCCc1cc(-c2cccs2)sc1-c1ccc(-c2sc(-c3cccs3)cc2CCN)s1 [pHTEA, penta Hydrogen Thiophene Ethanol Amine]")
6001
>>> numeric_readout("Cl.Cl.N=C(N)NCCC[C@H](NC(=O)Cc1cc(-c2cccs2)sc1-c1ccc(-c2sc(-c3cccs3)cc2CC(=O)N[C@@H](CCCNC(=N)N)C(=O)O)s1)C(=O)O")
194.0

# query: Gradient Parameters (gradient of regression line) of entry Cl.Cl.c1csc(-c2cc(CCn3ccnc3)c(-c3ccc(-c4sc(-c5cccs5)cc4CCn4ccnc4)s3)s2)c1 [pHTIm, penta Hydrogen Thiophene Imidazole]
3063

# query: Gradient Parameters (gradient of regression line) of entry `Cl.Cl.O=C(Cc1cc(-c2cccs2)sc1-c1ccc(-c2sc(-c3cccs3)cc2CC(=O)NCCc2c[nH]cn2)s1)NCCc1c[nH]cn1`
725.9

# query: Gradient Parameters (gradient of regression line) of entry `O=C([O-])CC[C@H](NC(=O)Cc1cc(-c2cccs2)sc1-c1ccc(-c2sc(-c3cccs3)cc2CC(=O)N[C@@H](CCC(=O)[O-])C(=O)[O-])s1)C(=O)[O-].[Na+].[Na+].[Na+].[Na+]`
−139.6
